# target: T1, human Trop-2 on Trop-2 positive cancer cells (human, UniProt P09758 27-323)
# T1 sequence (looked up): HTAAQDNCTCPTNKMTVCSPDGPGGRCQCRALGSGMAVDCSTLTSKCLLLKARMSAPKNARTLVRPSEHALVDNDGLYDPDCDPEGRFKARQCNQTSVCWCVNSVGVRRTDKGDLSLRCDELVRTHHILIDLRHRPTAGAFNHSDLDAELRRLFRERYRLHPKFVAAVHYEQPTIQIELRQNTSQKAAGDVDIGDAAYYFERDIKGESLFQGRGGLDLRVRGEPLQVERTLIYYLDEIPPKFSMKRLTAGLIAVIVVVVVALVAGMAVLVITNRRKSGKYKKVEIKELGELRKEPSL
# method.description: cell-based or functional assay
endpoint.label: Internalization rate (flow cytometry, MDA-MB-468 cells) (%)

# binder, unit.abbreviation, value.measured
data = [
    ("humanized IgG #118-2-5 Hu(A2)/LuX (antibody, V domains shown, Second round of humanization) VH: QVQLQESGPGLVKPSETLSLTCTVSGFSLTSYGVNWIRQPPGKGLEWIGVMWAGGSTNYNSALMSRVTISKDTSKNQFSLKLSSVTAADTAVYYCARDENWDGAWFAYWGQGTLVTVSS VL: DIVMTQSPDSLAVSLGERATINCKSSQSLLNSGTRKNYLAWYQQKPGQPPKLLIYWASSRESGVPDRFSGSGSGTDFTLTISSLQAEDVAVYYCKQSYNLFTFGGGTKVEIK", "%", 14.6),
    ("humanized IgG #118-2-5 HuA/LuX (antibody, V domains shown, Full-length IgG expressed in HEK293-6E cells; also called 1 (HuA/LuX); IgG HuA/LuX) VH: QVQLQESGPGLVKPSETLSLTCTVSGFSLTSYGVNWIRQPPGKGLEWIGVMWAGGSTNYNSALMSRVTISVDTSKNQFSLKLSSVTAADTAVYYCARDENWDGAWFAYWGQGTLVTVSS VL: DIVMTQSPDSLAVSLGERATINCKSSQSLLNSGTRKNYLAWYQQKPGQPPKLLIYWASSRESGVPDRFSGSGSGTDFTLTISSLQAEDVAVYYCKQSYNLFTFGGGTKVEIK", "%", 96.8),
    ("humanized IgG #118-2-5 Hu(A3)/LuX (antibody, V domains shown, Second round of humanization) VH: QVQLQESGPGLVKPSETLSLTCTVSGFSLTSYGVNWIRQPPGKGLEWIGVMWAGGSTNYNSALMSRVTISVDTSKNQVSLKLSSVTAADTAVYYCARDENWDGAWFAYWGQGTLVTVSS VL: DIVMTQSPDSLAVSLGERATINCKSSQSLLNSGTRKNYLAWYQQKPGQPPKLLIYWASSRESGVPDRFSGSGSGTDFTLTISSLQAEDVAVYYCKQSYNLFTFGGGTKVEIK", "%", 55.8),
]
